Test system: HOP-18 NSCLC
Test: NCI tumour cell line growth inhibition, 48 h
Property Measured: TGI

Completed entries (count: 5):
Compound	TGI
O=C1CCCCN1	> 1120 µM
O=c1[nH]nc(CNc2ccc(Cl)cc2Cl)c2ccccc12	54.4 µM
CSc1ccc2c(cc1=O)C(NC(=O)c1ccccc1)CCc1cc(O)c(O)c(O)c1-2 (stereo not drawn)	> 100 µM
CN1c2c(nc(N)[nH]c2=O)NCC1CCNc1ccc(C(=O)NC(CCC(=O)O)C(=O)O)cc1 (stereo not drawn)	2950 µM
COc1ccc(-c2cc(=O)c3cc(Cl)ccc3[nH]2)cc1	> 100 µM

Look up and state reported TGI for `COc1ccc([Se][Se]c2ccc(OC)cc2OC)c(OC)c1` 4.72 µM

Look up and state reported TGI for `C1C[OH+]CCNCC[OH+]CC[OH+]CCN1.N.[Cl-].[Pt+4]` > 100 µM

Look up and state reported TGI for `N#Cc1ccc([N+](=O)[O-])cc1NC(N)=S` > 100 µM
